# System: HCC-15
# test_details: relative viability (nuclei count vs DMSO), 5 days (fraction); higher = more cells survive
# recorded_conditions: first compound 0.2 µM
Answer each item with its documented relative viability.
Give only the figure.

Param item = CN1CCN(CCOc2cc(OC3CCOCC3)c3c(Nc4c(Cl)ccc5c4OCO5)ncnc3c2)CC1 [Saracatinib] + CC(C)C[C@H](NC(=O)[C@H](Cc1ccccc1)NC(=O)c1cnccn1)B(O)O [Bortezomib] (partner 0.002 µM) ; retrieve measured relative viability.
0.986

Param item = CN1CCN(CCOc2cc(OC3CCOCC3)c3c(Nc4c(Cl)ccc5c4OCO5)ncnc3c2)CC1 [Saracatinib] + C[C@@H](Oc1cc(-c2cnn(C3CCNCC3)c2)cnc1N)c1c(Cl)ccc(F)c1Cl [Crizotinib] (partner 1 µM) ; retrieve measured relative viability.
0.693

Param item = Cc1csc(=NC2CCCCC2)n1/N=C/c1ccc(O)c(O)c1O [MIM1] + NC(=O)Nc1cc(-c2cccc(F)c2)sc1C(=O)N[C@H]1CCCNC1 [AZD7762] (partner 0.2 µM) ; retrieve measured relative viability.
1.2

====

# Test system: NCI-H520
# test_details: relative viability (nuclei count vs DMSO), 5 days (fraction); higher = more cells survive
# recorded_conditions: first compound 0.003162 µM
metric: relative viability

Param item = Cc1cn(-c2cc(NC(=O)c3ccc(C)c(Nc4nccc(-c5cccnc5)n4)c3)cc(C(F)(F)F)c2)cn1 [Nilotinib] + O=C(c1cc(Cc2n[nH]c(=O)c3ccccc23)ccc1F)N1CCN(C(=O)C2CC2)CC1 [Olaparib] (partner 8 µM) ; retrieve measured relative viability.
0.293

Param item = Cc1cn(-c2cc(NC(=O)c3ccc(C)c(Nc4nccc(-c5cccnc5)n4)c3)cc(C(F)(F)F)c2)cn1 [Nilotinib] + CC(=O)c1c(C)c2cnc(Nc3ccc(N4CCNCC4)cn3)nc2n(C2CCCC2)c1=O [Palbociclib] (partner 0.5 µM) ; retrieve measured relative viability.
0.219

Param item = Cc1cn(-c2cc(NC(=O)c3ccc(C)c(Nc4nccc(-c5cccnc5)n4)c3)cc(C(F)(F)F)c2)cn1 [Nilotinib] + COc1cccc2cc(-c3nc([C@H]4CC[C@H](C(=O)O)CC4)n4ncnc(N)c34)[nH]c12 [OSI-027] (partner 0.5 µM) ; retrieve measured relative viability.
0.279

Param item = Cc1cn(-c2cc(NC(=O)c3ccc(C)c(Nc4nccc(-c5cccnc5)n4)c3)cc(C(F)(F)F)c2)cn1 [Nilotinib] + O=C(CCCCCCC(=O)Nc1ccccc1)NO [Vorinostat] (partner 1 µM) ; retrieve measured relative viability.
0.79

Param item = Cc1cn(-c2cc(NC(=O)c3ccc(C)c(Nc4nccc(-c5cccnc5)n4)c3)cc(C(F)(F)F)c2)cn1 [Nilotinib] + Cc1cc(Nc2cc(N3CCN(C)CC3)nc(Sc3ccc(NC(=O)C4CC4)cc3)n2)n[nH]1 [Tozasertib] (partner 0.1 µM) ; retrieve measured relative viability.
0.46

====

# Test system: NCI-H2009
# test_details: relative viability (nuclei count vs DMSO), 5 days (fraction); higher = more cells survive
# recorded_conditions: first compound 0.8 µM
Rule: relative viability below 1 gives T, anything at or above gives F.

Report whether reported relative viability is lower than 1 (strictly) for Nc1cccc2c1CN(C1CCC(=O)NC1=O)C2=O (stereo not given) [Lenalidomide] + CC1(C)CCC(c2ccc(Cl)cc2)=C(CN2CCN(c3ccc(C(=O)NS(=O)(=O)c4ccc(N[C@H](CCN5CCOCC5)CSc5ccccc5)c(S(=O)(=O)C(F)(F)F)c4)cc3)CC2)C1 [Navitoclax] (partner 0.5 µM)
F

Report whether reported relative viability is lower than 1 (strictly) for Nc1cccc2c1CN(C1CCC(=O)NC1=O)C2=O (stereo not given) [Lenalidomide] + Nc1nc2[nH]cc(CCc3ccc(C(=O)N[C@@H](CCC(=O)O)C(=O)O)cc3)c2c(=O)[nH]1 [Pemetrexed] (partner 0.2 µM)
F

Report whether reported relative viability is lower than 1 (strictly) for Nc1cccc2c1CN(C1CCC(=O)NC1=O)C2=O (stereo not given) [Lenalidomide] + Cc1nc(NC(=O)N2CCC[C@H]2C(N)=O)sc1-c1ccnc(C(C)(C)C(F)(F)F)c1 [Alpelisib] (partner 2 µM)
F

Report whether reported relative viability is lower than 1 (strictly) for Nc1cccc2c1CN(C1CCC(=O)NC1=O)C2=O (stereo not given) [Lenalidomide] + Cc1cc(Nc2cc(N3CCN(C)CC3)nc(Sc3ccc(NC(=O)C4CC4)cc3)n2)n[nH]1 [Tozasertib] (partner 0.1 µM)
T

====

# Test system: LU99A
# test_details: relative viability (nuclei count vs DMSO), 5 days (fraction); higher = more cells survive
# recorded_conditions: first compound 0.2 µM
Answer each item with its documented relative viability.
Give only the figure.

Param item = CN1CCN(CCOc2cc(OC3CCOCC3)c3c(Nc4c(Cl)ccc5c4OCO5)ncnc3c2)CC1 [Saracatinib] + NC(=O)Nc1cc(-c2cccc(F)c2)sc1C(=O)N[C@H]1CCCNC1 [AZD7762] (partner 0.2 µM) ; retrieve measured relative viability.
0.279

Param item = CN1CCN(CCOc2cc(OC3CCOCC3)c3c(Nc4c(Cl)ccc5c4OCO5)ncnc3c2)CC1 [Saracatinib] + Cc1cc(Nc2cc(N3CCN(C)CC3)nc(Sc3ccc(NC(=O)C4CC4)cc3)n2)n[nH]1 [Tozasertib] (partner 0.1 µM) ; retrieve measured relative viability.
0.249

Param item = Cc1csc(=NC2CCCCC2)n1/N=C/c1ccc(O)c(O)c1O [MIM1] + CS(=O)(=O)N1CCN(Cc2cc3nc(-c4cccc5[nH]ncc45)nc(N4CCOCC4)c3s2)CC1 [Pictilisib] (partner 1 µM) ; retrieve measured relative viability.
0.394

Param item = CCNC(=O)c1noc(-c2cc(C(C)C)c(O)cc2O)c1-c1ccc(CN2CCOCC2)cc1 [Luminespib] + COc1cccc2cc(-c3nc([C@H]4CC[C@H](C(=O)O)CC4)n4ncnc(N)c34)[nH]c12 [OSI-027] (partner 0.5 µM) ; retrieve measured relative viability.
0.162

Param item = CN1CCN(CCOc2cc(OC3CCOCC3)c3c(Nc4c(Cl)ccc5c4OCO5)ncnc3c2)CC1 [Saracatinib] + Cc1nc(NC(=O)N2CCC[C@H]2C(N)=O)sc1-c1ccnc(C(C)(C)C(F)(F)F)c1 [Alpelisib] (partner 2 µM) ; retrieve measured relative viability.
0.371

Param item = CCNC(=O)c1noc(-c2cc(C(C)C)c(O)cc2O)c1-c1ccc(CN2CCOCC2)cc1 [Luminespib] + O=C(c1cc(Cc2n[nH]c(=O)c3ccccc23)ccc1F)N1CCN(C(=O)C2CC2)CC1 [Olaparib] (partner 8 µM) ; retrieve measured relative viability.
0.138

Param item = CN1CCN(CCOc2cc(OC3CCOCC3)c3c(Nc4c(Cl)ccc5c4OCO5)ncnc3c2)CC1 [Saracatinib] + C[C@@H](Oc1cc(-c2cnn(C3CCNCC3)c2)cnc1N)c1c(Cl)ccc(F)c1Cl [Crizotinib] (partner 1 µM) ; retrieve measured relative viability.
0.377

Param item = Cc1csc(=NC2CCCCC2)n1/N=C/c1ccc(O)c(O)c1O [MIM1] + Cc1nc(NC(=O)N2CCC[C@H]2C(N)=O)sc1-c1ccnc(C(C)(C)C(F)(F)F)c1 [Alpelisib] (partner 2 µM) ; retrieve measured relative viability.
0.488

====

Answer each item with its documented relative viability.
# Tested on: NCI-H647
# test_details: relative viability (nuclei count vs DMSO), 5 days (fraction); higher = more cells survive
# recorded_conditions: first compound 0.02 µM
Give only the figure.

Param item = CN1CCN(CCOc2cc(OC3CCOCC3)c3c(Nc4c(Cl)ccc5c4OCO5)ncnc3c2)CC1 [Saracatinib] + CC(=O)c1c(C)c2cnc(Nc3ccc(N4CCNCC4)cn3)nc2n(C2CCCC2)c1=O [Palbociclib] (partner 0.5 µM) ; retrieve measured relative viability.
0.383

Param item = CN1CCN(CCOc2cc(OC3CCOCC3)c3c(Nc4c(Cl)ccc5c4OCO5)ncnc3c2)CC1 [Saracatinib] + C[C@@H](Oc1cc(-c2cnn(C3CCNCC3)c2)cnc1N)c1c(Cl)ccc(F)c1Cl [Crizotinib] (partner 1 µM) ; retrieve measured relative viability.
1.11

Param item = CCNC(=O)c1noc(-c2cc(C(C)C)c(O)cc2O)c1-c1ccc(CN2CCOCC2)cc1 [Luminespib] + CC1(C)CCC(c2ccc(Cl)cc2)=C(CN2CCN(c3ccc(C(=O)NS(=O)(=O)c4ccc(N[C@H](CCN5CCOCC5)CSc5ccccc5)c(S(=O)(=O)C(F)(F)F)c4)cc3)CC2)C1 [Navitoclax] (partner 0.5 µM) ; retrieve measured relative viability.
1.18

Param item = CCNC(=O)c1noc(-c2cc(C(C)C)c(O)cc2O)c1-c1ccc(CN2CCOCC2)cc1 [Luminespib] + Nc1nc2[nH]cc(CCc3ccc(C(=O)N[C@@H](CCC(=O)O)C(=O)O)cc3)c2c(=O)[nH]1 [Pemetrexed] (partner 0.2 µM) ; retrieve measured relative viability.
0.193

Param item = CN1CCN(CCOc2cc(OC3CCOCC3)c3c(Nc4c(Cl)ccc5c4OCO5)ncnc3c2)CC1 [Saracatinib] + COc1cccc2cc(-c3nc([C@H]4CC[C@H](C(=O)O)CC4)n4ncnc(N)c34)[nH]c12 [OSI-027] (partner 0.5 µM) ; retrieve measured relative viability.
0.584

Param item = CCNC(=O)c1noc(-c2cc(C(C)C)c(O)cc2O)c1-c1ccc(CN2CCOCC2)cc1 [Luminespib] + C[C@@H](Oc1cc(-c2cnn(C3CCNCC3)c2)cnc1N)c1c(Cl)ccc(F)c1Cl [Crizotinib] (partner 1 µM) ; retrieve measured relative viability.
1.15

Param item = CN1CCN(CCOc2cc(OC3CCOCC3)c3c(Nc4c(Cl)ccc5c4OCO5)ncnc3c2)CC1 [Saracatinib] + Nc1ncn([C@H]2C[C@H](O)[C@@H](CO)O2)c(=O)n1 [Decitabine] (partner 2 µM) ; retrieve measured relative viability.
0.438

Data origin, for the record: the supplement of paper PMC10307832
